Measured viability, T/C, listed per entry for reference.
# System: 898857-211-R-J1-PDC complex spheroids, growth % test/control;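 also: spheroids exposed to compound for seven days before readout; 100% = DMSO vehicle control wells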
# method-notes: Anticancer human tumor 898857-211-R-J1-PDC patient-derived melanoma cell line growth inhibition [RAS]
# details: second compound 0.0316 µM; first compound 0.01 µM; active compounds read low
reported-endpoint: viability, T/C (%)

| compound | assay-system | reported-endpoint | numeric-readout |
| --- | --- | --- | --- |
| Nc1ccn(C2OC(CO)C(O)C2(F)F)c(=O)n1 (stereo unspecified) + C=CC(=O)N1CCN(c2nc(OCC3CCCN3C)nc3c(F)c(-c4nc(N)cc(C)c4C(F)(F)F)c(Cl)cc23)C(C)C1 | 898857-211-R-J1-PDC complex spheroids, growth % test/control | viability, T/C | 27.9 |
| CC(C)n1nc(-c2ccc3oc(N)nc3c2)c2c(N)ncnc21 + C=CC(=O)N1CCN(c2nc(OCC3CCCN3C)nc3c(F)c(-c4nc(N)cc(C)c4C(F)(F)F)c(Cl)cc23)C(C)C1 | 898857-211-R-J1-PDC complex spheroids, growth % test/control | viability, T/C | 77.5 |
| CC(C)n1nc(-c2ccc3oc(N)nc3c2)c2c(N)ncnc21 + C#Cc1c(F)ccc2cc(O)cc(-c3ncc4c(N5CC6CCC(C5)N6)nc(OCC56CCCN5CC(F)C6)nc4c3F)c12 | 898857-211-R-J1-PDC complex spheroids, growth % test/control | viability, T/C | 81.8 |
| Nc1ccn(C2OC(CO)C(O)C2(F)F)c(=O)n1 (stereo unspecified) + C#Cc1c(F)ccc2cc(O)cc(-c3ncc4c(N5CC6CCC(C5)N6)nc(OCC56CCCN5CC(F)C6)nc4c3F)c12 | 898857-211-R-J1-PDC complex spheroids, growth % test/control | viability, T/C | 29.7 |
| C=CC(=O)Nc1cc(Nc2nccc(-c3cn(C)c4ccccc34)n2)c(OC)cc1N(C)CCN(C)C + C=CC(=O)N1CCN(c2nc(OCC3CCCN3C)nc3c(F)c(-c4nc(N)cc(C)c4C(F)(F)F)c(Cl)cc23)C(C)C1 | 898857-211-R-J1-PDC complex spheroids, growth % test/control | viability, T/C | 103 |
| O=C(c1ccc(F)c(F)c1Nc1ccc(I)cc1F)N1CC(O)([C@@H]2CCCCN2)C1 + C=CC(=O)N1CCN(c2nc(OCC3CCCN3C)nc3c(F)c(-c4nc(N)cc(C)c4C(F)(F)F)c(Cl)cc23)C(C)C1 | 898857-211-R-J1-PDC complex spheroids, growth % test/control | viability, T/C | 38 |
